Where do the numbers come from? From patent US20210032294A1.

Test system: bacterial inoculum
Test: Thermal stability: in vitro lytic assay after 30 min heating
Format: cell-based
Settings: 30 minutes at 37° C., 128 μg/mL in Tris buffer pH 8.0; CF-301 set at 100
Protocol: Thermal stability was assessed by incubating the lysin polypeptides at a fixed concentration of 128 μg/mL in Tris buffer pH 8.0 for 30 minutes at various elevated temperatures (within the range of about 30° C. to 60° C.) prior to assessing activity. […] The loss of optical density was followed for 15 minute at room temperature, and the specific activity was determined based on the enzyme concentration enabling a 50% loss of optical density at 15 minutes. […]
Readout: % Wild-Type Activity at 37° C. (%)
Just the number please, in %, no unit attached.

Consider the reported % Wild-Type Activity at 37° C. for these molecules:
>  <Molecule>
pp61: Modified PlySs2 lysin, SEQ ID NO: 4: L92W, V104S, V128T, Y137S, S198H, I206E; +246K (protein) MTTVNEALNNVRAQVGSGVSVGNGECYALASWYERMISPDATVGLGAGVGWVSGAIGDTISAKNIGSSYNWQANGWTVSTSGPFKAGQIVTWGATPGNPYGHVSIVEAVDGDRLTILEQNYGGKRYPTRNYYSAASSRQQVVHYITPPGTVAQSAPNLAGSRSYRETGTMTVTVDALNVRRAPNTSGEIVAVYKRGEHFDYDTVIEDVNGYVWVSYIGGSGKRNYVATGATKDGKRFGNAWGTFK

>  <Result Unit>
%

>  <Measurement>
258

$$$$
>  <Molecule>
pp296: Modified PlySs2 lysin, SEQ ID NO: 6: L92W, V104S, V128T, Y137S, Y164K, N184D, S198Q (protein) MTTVNEALNNVRAQVGSGVSVGNGECYALASWYERMISPDATVGLGAGVGWVSGAIGDTISAKNIGSSYNWQANGWTVSTSGPFKAGQIVTWGATPGNPYGHVSIVEAVDGDRLTILEQNYGGKRYPTRNYYSAASSRQQVVHYITPPGTVAQSAPNLAGSRSKRETGTMTVTVDALNVRRAPDTSGEIVAVYKRGEQFDYDTAIIDVNGYAWVSYIGGSGKRNYVATGATKDGKRFGNAWGTFK

>  <Result Unit>
%

>  <Measurement>
205

$$$$
>  <Molecule>
pp65: Modified PlySs2 lysin, SEQ ID NO: 5: L92W, V104S, V128T, Y137S, S198Q, V204A, V212A; +246K (protein) MTTVNEALNNVRAQVGSGVSVGNGECYALASWYERMISPDATVGLGAGVGWVSGAIGDTISAKNIGSSYNWQANGWTVSTSGPFKAGQIVTWGATPGNPYGHVSIVEAVDGDRLTILEQNYGGKRYPTRNYYSAASSRQQVVHYITPPGTVAQSAPNLAGSRSYRETGTMTVTVDALNVRRAPNTSGEIVAVYKRGEQFDYDTAIIDVNGYAWVSYIGGSGKRNYVATGATKDGKRFGNAWGTFK

>  <Result Unit>
%

>  <Measurement>
220

$$$$

Now take the following molecule into account.
Input: Which % Wild-Type Activity at 37° C. value is on record for CF-301: WT GMP grade PlySs2 lysin, SEQ ID NO: 1 (protein, listed as Streptococcus suis) MTTVNEALNNVRAQVGSGVSVGNGECYALASWYERMISPDATVGLGAGVGWVSGAIGDTISAKNIGSSYNWQANGWTVSTSGPFKAGQIVTLGATPGNPYGHVVIVEAVDGDRLTILEQNYGGKRYPVRNYYSAASYRQQVVHYITPPGTVAQSAPNLAGSRSYRETGTMTVTVDALNVRRAPNTSGEIVAVYKRGESFDYDTVIIDVNGYVWVSYIGGSGKRNYVATGATKDGKRFGNAWGTFK ?
Output: 100
